# Tested on: muMax20 (Max(13-93) K31hArg/K57hArg, M65Nle)
# assay.summary: PBM 8-mer E-score (E-score (rank enrichment, -0.5 to 0.5)); higher = stronger preferential binding
The full ranking holds about 33,000 sequences; the median of “E-score (rank enrichment, -0.5 to 0.5)” is about -0.0068, and the highest 2% start at about 0.24. Many of the other results were omitted from the sample, so the highest values are more common in it than they were.
Threshold check on PBM 8-mer E-score: at or above 0.001 gives 1.0, strictly below gives 0.0.

ACACGTCT
1.0
GAGAGTCA
1.0
AGTACTAT
0.0
GATCCAAC
0.0
AGCTTGGG
0.0

Ask | Please check the record AGAACGAG and state if its PBM 8-mer E-score is at or above 0.001.
Reply | 1.0

Ask | Dear colleague, could you confirm whether AACTTCGA has PBM 8-mer E-score at or above 0.001?
Reply | 1.0

Ask | Is it the case that GTGTAAAA has PBM 8-mer E-score reaching or exceeding 0.001?
Reply | 1.0

Ask | Threshold query (PBM 8-mer E-score >= 0.001) on AACTACGA
Reply | 1.0

Just for reference, the supplement of paper PMC12636033 is where these values come from.
